Where do the numbers come from? From paper PMC12669278.

STUDY_TARGET: purified VDAC1 (Homo sapiens)
Sequence (P21796 whole entry, species assumed): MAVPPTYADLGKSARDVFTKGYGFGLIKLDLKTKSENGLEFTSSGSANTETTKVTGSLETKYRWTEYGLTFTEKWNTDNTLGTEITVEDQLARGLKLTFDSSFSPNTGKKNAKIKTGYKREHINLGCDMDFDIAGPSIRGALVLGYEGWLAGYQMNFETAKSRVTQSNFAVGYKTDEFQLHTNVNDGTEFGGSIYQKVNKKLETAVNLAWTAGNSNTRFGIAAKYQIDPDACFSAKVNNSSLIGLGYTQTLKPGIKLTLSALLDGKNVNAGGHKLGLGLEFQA
EXPERIMENT_NOTES: Glass-bound peptide array probed with purified VDAC1 and anti-VDAC1 antibodies
Format: binding
Parameters: key: +: low; ++: medium; +++: high
CONDITION_NOTES: glass-bound peptide array incubated 4 h with purified VDAC1 (64 nM); antibody against VDAC1 amino acids 150-250; chemiluminescence
OBSERVED_PROPERTY: Spot intensity, detected using anti-VDAC1 internal sequence

>>> observed_result("HVAENPSIQLLEGNPGPPADPDGGP [1L14, array peptide from MAVS]")
"+++"
>>> observed_result("YQVSPLAARLLYPYLAWLAFTTTLN [1H11, array peptide from TSPO]")
"+"
>>> observed_result("YKSEGTFGIHVAENPSIQLLEGNPG [1L13, array peptide from MAVS]")
"++"
>>> observed_result("EVAASAILTAQLDEELGGTPVQSRV [2I10, array peptide from gelsolin isoform b]")
"+"

Ask: Identify the measured Spot intensity, detected using anti-VDAC1 internal sequence of KFHGTVKAENGKLVINGNPITIFQE [2B20, array peptide from GAPDH1] for purified VDAC1 (Homo sapiens).
Result: +++
